# Tested on: MTS 5A (synthetic)

ordered residues: TGGGGGTGG (double strand) [MTS 5A target]
target under test: MTS 5A (synthetic)
Kd: 0.07 nM

====

# Test system: VOP 29A-3 (synthetic)

ordered residues: GAGGCTTGG (double strand) [VOP 29A-3 target]
Kd: < 20 pM

====

# System: HP38 4A (synthetic)
observation type: Kd (nM)

ordered residues: GGDTGGGGG (double strand) [HP38 4A target]
measured result: 0.75

====

# Test system: VOP 32A-6 (synthetic)
observation type: Kd

ordered residues: GGGGGTGAC (double strand) [VOP 32 target]
measured result: < 20 pM

// provenance: patent US20050267061
